All values here come from patent US8211900B2.

molecular target: recombinant human DHFR (Homo sapiens, UniProt P00374); assay: DHFR enzyme inhibition assay (Sigma kit CS0340); settings: NADPH 60 μM, dihydrofolic acid 50 μM
Sequence (P00374 whole entry): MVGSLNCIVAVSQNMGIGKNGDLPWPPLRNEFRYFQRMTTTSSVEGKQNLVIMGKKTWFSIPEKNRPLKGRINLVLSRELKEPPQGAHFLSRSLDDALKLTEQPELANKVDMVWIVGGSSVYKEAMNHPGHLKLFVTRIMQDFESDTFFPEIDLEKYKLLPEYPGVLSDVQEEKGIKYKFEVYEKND
IC50 values, listed per item

As a guide, the following entries are already answered.
{"CHEMICAL_STRING": "COc1cc(NCc2ccc3nc(N)nc(N)c3c2C)cc(OC)c1OCC(=O)N[C@@H](CC(C)C)C(=O)OC1CCCC1", "RECORDED_VALUE": "> 1000 nM"}
{"CHEMICAL_STRING": "Cc1c(CNc2ccc(C(=O)N[C@@H](CC(C)C)C(=O)OC3CCCC3)cc2)cnc2nc(N)nc(N)c12", "RECORDED_VALUE": "> 1000 nM"}
{"CHEMICAL_STRING": "COc1cc(NCc2ccc3nc(N)nc(N)c3c2C)cc(OC)c1OCCN[C@@H](CC(C)C)C(=O)OC1CCCC1", "RECORDED_VALUE": "100 to 1000 nM"}
{"CHEMICAL_STRING": "Cc1c(CNc2ccc(CN[C@@H](CC(C)C)C(=O)OC3CCCC3)cc2)cnc2nc(N)nc(N)c12", "RECORDED_VALUE": "> 1000 nM"}
{"CHEMICAL_STRING": "COc1cc(NCc2ccc3nc(N)nc(N)c3c2C)cc(OC)c1OCC(=O)N[C@@H](CC(C)C)C(=O)O", "RECORDED_VALUE": "< 100 nM"}
{"CHEMICAL_STRING": "Cc1c(CNc2ccc(C(=O)N[C@@H](CC(C)C)C(=O)O)cc2)cnc2nc(N)nc(N)c12", "RECORDED_VALUE": "< 100 nM"}
{"CHEMICAL_STRING": "COc1cc(NCc2ccc3nc(N)nc(N)c3c2C)cc(OC)c1OCCN[C@@H](CC(C)C)C(=O)O", "RECORDED_VALUE": "< 100 nM"}
{"CHEMICAL_STRING": "Cc1c(CNc2ccc(CN[C@@H](CC(C)C)C(=O)O)cc2)cnc2nc(N)nc(N)c12", "RECORDED_VALUE": "< 100 nM"}
{"CHEMICAL_STRING": "COc1cc(NCc2ccc3nc(N)nc(N)c3c2C)cc(OC)c1OCC(=O)N[C@@H](CC(C)C)C(=O)OC(C)(C)C", "RECORDED_VALUE": "> 1000 nM"}

Please examine the following record next.
Ask | Look at this compound and give its reported IC50. `COc1cc(NCc2ccc3nc(N)nc(N)c3c2C)cc(OC)c1OCCN[C@@H](CC(C)C)C(=O)OC(C)(C)C`
Reply | 100 to 1000 nM

====

test system: HCT-116; experiment: Cell inhibition assay (WST-1 cell viability), HCT-116; type: cell-based; settings: Homo sapiens, HCT-116 cells, 72-96 h, read-out: Inhibition cell proliferation HCT-116
pIC50: −log10 of the molar value.
RECORDED_METRIC: pIC50

As a guide, the following entries are already answered.
{"MOLECULE": "COc1cc(NCc2ccc3nc(N)nc(N)c3c2C)cc(OC)c1OCC(=O)N[C@@H](CC(C)C)C(=O)OC(C)(C)C [Example 6]", "RECORDED_METRIC": "pIC50", "RECORDED_VALUE": "6.00 to 7.00"}
{"MOLECULE": "COc1cc(NCc2ccc3nc(N)nc(N)c3c2C)cc(OC)c1OCCN[C@@H](CC(C)C)C(=O)OC(C)(C)C [Example 10]", "RECORDED_METRIC": "pIC50", "RECORDED_VALUE": "6.00 to 7.00"}
{"MOLECULE": "Cc1c(CNc2ccc(CN[C@@H](CC(C)C)C(=O)OC3CCCC3)cc2)cnc2nc(N)nc(N)c12 [Example 3]", "RECORDED_METRIC": "pIC50", "RECORDED_VALUE": "< 6.00"}
{"MOLECULE": "Cc1c(CNc2ccc(C(=O)N[C@@H](CC(C)C)C(=O)OC3CCCC3)cc2)cnc2nc(N)nc(N)c12 [Example 1]", "RECORDED_METRIC": "pIC50", "RECORDED_VALUE": "> 7.00"}
{"MOLECULE": "COc1cc(NCc2ccc3nc(N)nc(N)c3c2C)cc(OC)c1OCC(=O)N[C@@H](CC(C)C)C(=O)OC1CCCC1 [Example 5]", "RECORDED_METRIC": "pIC50", "RECORDED_VALUE": "6.00 to 7.00"}

Please examine the following record next.
Ask | Form: Entry = COc1cc(NCc2ccc3nc(N)nc(N)c3c2C)cc(OC)c1OCCN[C@@H](CC(C)C)C(=O)OC1CCCC1 [Example 8] | System = HCT-116 | pIC50 = ____
Reply | 6.00 to 7.00
